target.entity: hQC (Homo sapiens)
Sequence (Q16769 29-361): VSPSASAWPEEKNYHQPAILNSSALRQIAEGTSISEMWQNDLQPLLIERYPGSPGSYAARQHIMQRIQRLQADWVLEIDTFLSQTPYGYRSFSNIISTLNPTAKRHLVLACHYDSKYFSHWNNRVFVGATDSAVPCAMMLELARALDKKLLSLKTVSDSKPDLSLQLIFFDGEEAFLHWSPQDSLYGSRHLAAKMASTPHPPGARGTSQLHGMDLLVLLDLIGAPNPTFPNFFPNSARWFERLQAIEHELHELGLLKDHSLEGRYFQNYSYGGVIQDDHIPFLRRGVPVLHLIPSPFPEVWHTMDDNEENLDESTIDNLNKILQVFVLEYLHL
experimental.details: Fluorometric (fluorescent) assay of hQC inhibition, IC50
Type: biochemical
test.settings: read-out: IC50
measured.attribute: log10(IC50) (log10 of the value in µM)
The base-10 logarithm of IC50, taken with IC50 in µM, is what appears here.

Completed entries (count: 6):
>  <compound>
Clc1ccc(Cn2nnnc2C(NCCCn2ccnc2)c2ccc3ccccc3n2)cc1 (stereo not drawn)

>  <target.entity>
hQC (Homo sapiens)

>  <log10(IC50)>
0.11

$$$$
>  <compound>
COC(=O)Cn1nnnc1C(NCCCn1ccnc1)c1ccc(F)c(C#N)c1 (stereo not drawn)

>  <target.entity>
hQC (Homo sapiens)

>  <log10(IC50)>
0.60

$$$$
>  <compound>
COC(=O)Cn1nnnc1C1(NCCCn2ccnc2)CCC1

>  <target.entity>
hQC (Homo sapiens)

>  <log10(IC50)>
-0.40

$$$$
>  <compound>
c1ccc2ncc(C(Nc3ccc4[nH]cnc4c3)c3nnnn3CC3CCCO3)cc2c1 (stereo not drawn)

>  <target.entity>
hQC (Homo sapiens)

>  <log10(IC50)>
0.34

$$$$
>  <compound>
Oc1cccc2ccc(C(NCCCn3ccnc3)c3nnnn3C3CCCC3)nc12 (stereo not drawn)

>  <target.entity>
hQC (Homo sapiens)

>  <log10(IC50)>
0.34

$$$$
>  <compound>
C=CCn1nnnc1C(NCCCn1ccnc1)c1cc(C)ccc1O (stereo not drawn)

>  <target.entity>
hQC (Homo sapiens)

>  <log10(IC50)>
0.69

$$$$

log10(IC50) in this record for Cc1ccc(O)c(C(NCCCn2ccnc2)c2nnnn2C[C@@H]2CCCO2)c1 (stereo partly drawn) : 0.49

log10(IC50) in this record for COc1ccc(C(Nc2ccc3[nH]cnc3c2)c2nnnn2Cc2ccccc2Cl)c(C)c1 (stereo not drawn) : 0.11

---

target.entity: UniProtKB Q16769
experimental.details: Fluorometric (fluorescent) assay of hQC inhibition, IC50
Format: biochemical
test.settings: hQC inhibition; read-out: IC50
Form field: pIC50 (one value per entry).
On this scale, pIC50 is minus log10 of a concentration expressed in M (mol/L).

Completed entries (count: 8):
>  <molecule>
Clc1ccc(Cn2nnnc2C(Nc2ccc3[nH]cnc3c2)c2ccc(Cl)cc2)cc1 (stereo not drawn)

>  <target.entity>
UniProtKB Q16769

>  <measured.value>
5.40

$$$$
>  <molecule>
C1=COC(C(Nc2ccc3nc[nH]c3c2)c2nnnn2CCc2cccs2)CC1 (stereo not drawn)

>  <target.entity>
UniProtKB Q16769

>  <measured.value>
5.24

$$$$
>  <molecule>
CCc1ccc(C(Nc2ccc3[nH]cnc3c2)c2nnnn2Cc2ccccc2)s1 (stereo not drawn)

>  <target.entity>
UniProtKB Q16769

>  <measured.value>
5.51

$$$$
>  <molecule>
Cc1cc(C(Nc2ccc3[nH]cnc3c2)c2nnnn2CC2CCCO2)cc(C)c1O (stereo not drawn)

>  <target.entity>
UniProtKB Q16769

>  <measured.value>
5.17

$$$$
>  <molecule>
Cc1cc(C)cc(C(Nc2ccc3[nH]cnc3c2)c2nnnn2Cc2ccccc2)c1 (stereo not drawn)

>  <target.entity>
UniProtKB Q16769

>  <measured.value>
5.24

$$$$
>  <molecule>
CCOC(=O)C1CCCCC1n1nnnc1C(CC(C)c1ccc(C)o1)Nc1ccc2[nH]cnc2c1 (stereo not drawn)

>  <target.entity>
UniProtKB Q16769

>  <measured.value>
5.17

$$$$
>  <molecule>
O=[N+]([O-])c1cc(C(Nc2ccc3[nH]cnc3c2)c2nnnn2Cc2ccccc2Cl)ccc1Cl (stereo not drawn)

>  <target.entity>
UniProtKB Q16769

>  <measured.value>
5.89

$$$$
>  <molecule>
Clc1ccc(C(Nc2ccc3[nH]cnc3c2)c2nnnn2Cc2ccccc2Cl)cc1 (stereo not drawn)

>  <target.entity>
UniProtKB Q16769

>  <measured.value>
5.51

$$$$

Now consider a different molecule.
pIC50 in this record for Fc1ccc2c(C(Nc3ccc4[nH]cnc4c3)c3nnnn3CC3CCCO3)c[nH]c2c1 (stereo not drawn) : 5.24

Just for reference, patent US7741354B2 is where these values come from.
